Data credit: the supplement of paper PMC11908140

B1: library; numbered along this chain (parent)
chain: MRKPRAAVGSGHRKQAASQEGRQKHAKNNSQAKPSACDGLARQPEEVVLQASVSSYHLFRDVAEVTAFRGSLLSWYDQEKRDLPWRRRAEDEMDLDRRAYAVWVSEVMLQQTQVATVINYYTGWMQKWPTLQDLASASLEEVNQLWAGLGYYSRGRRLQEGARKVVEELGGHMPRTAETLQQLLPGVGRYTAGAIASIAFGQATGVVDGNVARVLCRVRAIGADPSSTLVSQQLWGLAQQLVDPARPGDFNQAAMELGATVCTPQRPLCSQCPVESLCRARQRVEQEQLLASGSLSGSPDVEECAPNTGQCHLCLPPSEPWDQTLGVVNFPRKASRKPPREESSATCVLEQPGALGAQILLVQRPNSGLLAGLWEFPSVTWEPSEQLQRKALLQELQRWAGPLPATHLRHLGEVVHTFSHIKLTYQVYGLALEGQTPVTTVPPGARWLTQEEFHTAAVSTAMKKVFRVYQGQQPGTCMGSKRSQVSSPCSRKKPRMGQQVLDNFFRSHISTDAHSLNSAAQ

- Variants of: B1
- PROCEDURE_SUMMARY: 8OG:A repair function score (normalized; synonymous = 0, nonsense = -1) (normalized log-likelihood score); higher = more repair activity (WT-like);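 note: cells sorted at 72 h after reporter transfection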
- CONDITION_SUMMARY: with 8OG:A DNA repair reporter (GFP) in HEK-293 MUTYH KO cells
TEST_READOUT: 8OG:A repair function score

Query: Report measured 8OG:A repair function score; entry is `L134K`
Reply: -0.914

Query: Tell us which 8OG:A repair function score value is on record for `H416I`
Reply: -0.188

Query: Return 8OG:A repair function score for the following variant: `P402E`
Reply: -0.208

Query: Report measured 8OG:A repair function score; entry is `G205C`
Reply: -0.378

Query: Give reported 8OG:A repair function score value for `L370I`
Reply: -0.377

Query: Write down 8OG:A repair function score measured for item `T66K`
Reply: -0.0706

Query: Tell us which 8OG:A repair function score value is on record for `F250Y`
Reply: 0.0779

Query: Report 8OG:A repair function score for `G209Y`
Reply: -0.757

Query: Tell me 8OG:A repair function score reported for `T228C`
Reply: -0.0551

Query: Give 8OG:A repair function score for `Q202W`
Reply: -0.586

Query: Item `V301R` : provide 8OG:A repair function score
Reply: -0.275
